Origin of the recorded values: ChEMBL document CHEMBL1201862

# Test system: PC-3
# experimental protocol: NCI tumour cell line growth inhibition, 48 h
The source made the active and inactive calls. Cut-off read from the data, not from the text of the source: active = GI50 up to about 1.1 µM and inactive = higher.
assay endpoint: GI50

Consider the reported GI50 for these compounds:
Cc1ccc2c(c1C)C(=O)C1(C2)Cc2ccc3c(c2C1=O)CCC3 (stereo not given) | > 100 µM (inactive)
Cc1ccc(S(=O)(=O)N2CC3OC(C)(C)OC3C2CO)cc1 (stereo not given) | > 100 µM (inactive)
[O-][S+](c1ccccc1)c1ccc(/N=N/O)nc1 (stereo not given) | 78.5 µM (inactive)
COc1ccc2c3c([nH]c2c1)[C@H](C=C(C)C)N1C(=O)[C@@H]2CCCN2C(=O)[C@@H]1C3 | > 100 µM (inactive)
CCCN(C(=O)c1c(Cl)nnc(Cl)c1C(=O)c1cc(Cl)nnc1Cl)c1cc(Cl)nnc1Cl | 6.61 µM (inactive)
O=C(c1cccs1)N(C(=S)OCc1ccccn1)c1ccccc1 | 47.8 µM (inactive)

Kindly review the next compound as well.
Which GI50 value is on record for `c1ccc(NNC2=NCCN2)cc1` ?
> 100 µM (inactive)

###

# Test system: OVCAR-3
# experimental protocol: NCI tumour cell line growth inhibition, 48 h
Calls of active or inactive are those of the source. No stated cut-off is given here; in the data, active = GI50 up to about 1.1 µM and inactive = higher.
Entries annotated with measured GI50

CNNC1=NS(=O)(=O)c2cc(C)c(Cl)cc2S1 | > 10 µM (inactive)
O=C(O)Cc1ccc(Oc2nc3ccccc3nc2-c2ccccc2)cc1 | 32.6 µM (inactive)
CCOc1ccc(NCC2CC/C(=C\c3ccc(Cl)cc3)C2=O)cc1 (stereo not given) | > 36.9 µM (inactive)

Please tell me: GI50 of `CCOC(=O)C(=CNc1ccc(F)c(F)c1)C(=O)OCC` , system OVCAR-3?
> 100 µM (inactive)

What measured GI50 is associated with `Cc1ccc(F)c2[nH]c(-c3ccccc3)cc(=O)c12` on OVCAR-3?
6.28 µM (inactive)

Please provide the recorded GI50 for C[C@@H]1C[C@]2(C[C@@H](C)[C@H]3C(C[C@@]4(C)CCC[C@@H]5C6=C[C@H](CCC34C)OC6=CC(=O)OC5(C)C)O2)OC1=O (stereo not given in full) , tested on OVCAR-3.
> 51.5 µM (inactive)

Notebook: pull reported GI50 for OVCAR-3, entry `COC(=O)[C@]12CSC[C@H]1C[C@H](c1cccc3ccccc13)N2`
> 100 µM (inactive)

Give GI50 (OVCAR-3) of the following molecule: `CCCNC(=O)c1cc(NC(=O)c2cc(NC(=O)/C=C/c3ccccc3)c(OC)c(OC)c2)c(OC)c(OC)c1`
4.01 µM (inactive)

Query the reported GI50 for OVCAR-3; item: COc1cc2c(cc1OC)C1(c3ccccc3)ON=C(c3ccccc3)N1CS2 (stereo not given)
> 100 µM (inactive)

Please provide the recorded GI50 for COC1=CC(=O)c2c(O)c3c(c(O)c2C1=O)C=C(C)OC3O (stereo not given) , tested on OVCAR-3.
1.03 µM (active)

###

# Test system: UACC-257
# experimental protocol: NCI tumour cell line growth inhibition, 48 h
Active and inactive are the calls of the source. Rule as the data show it: active = GI50 up to about 1.1 µM and inactive = higher.
The reply should name one outcome from class 1 for active, class 0 for inactive

Worked examples, 4 compounds total:
CC(=O)Nc1ccc2c3c(cc(O)c2c1)N(C(=O)CCCCC(=O)N1CC(CCl)c2c1cc(O)c1cc(NC(C)=O)ccc21)CC3CCl (stereo not given) | class 1
CCOC(=O)C1Cc2ccc3c4c(ccc(c24)C1)CC(C(=O)OCC)C3 | class 0
O=C(O)Cc1ccc(Oc2nc3ccccc3nc2-c2ccccc2)cc1 | class 0
CN1C(=O)N(c2ccccc2)C2(CCN(CC3COc4ccccc4O3)CC2)C1=O (stereo not given) | class 0

Now for a further compound.
Look up the recorded call for `CSc1cc(=O)n2c3ccccc3c3ccnc1c32` in this test.
class 0
